Cited source: PubChem BioAssay (NCI)

Experiment: NCI Yeast Anticancer Drug Screen. Data for the cln2 rad14 strain (AID 165);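 also: 0% = growth equal to vehicle treated cultures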
Conditions: S. cerevisiae cln2 rad14 strain, stronger effect = higher value; at 50.0 µM unless noted
The panel holds about 79,000 compounds, 15% with a hit somewhere; the sample as a whole holds those more often.
What growth inhibition was measured for each of the following?
Respond with the bare value in %.

Just so you know, measured growth inhibition for CCCCCCCCCCCCCCCCCC(=O)N1CCN(C(=O)CCCCCCCCCCCCCCCCC)C1 came out at -19.2

Just so you know, measured growth inhibition for CCOC(=O)C1Oc2ccc([N+](=O)[O-])cc2C1(C)O (centres undefined) came out at 22.6

Just so you know, measured growth inhibition for O=S1(=O)c2ccccc2Nc2cc3ccccc3cc21 came out at -11.5

Just so you know, measured growth inhibition for O=C(O)c1ccc(C(=O)NCCCN(CCCCN(CCCNC(=O)c2ccc(C(=O)O)c(O)c2O)C(=O)c2ccc(C(=O)O)c(O)c2O)C(=O)c2ccc(C(=O)O)c(O)c2O)c(O)c1O came out at -31.3

Just so you know, measured growth inhibition for CN(C)/C(N)=N\c1nc(O)cc(=O)[nH]1 came out at -0.6

Just so you know, measured growth inhibition for O=c1[nH]c(/C=C/c2ccccc2)c([N+](=O)[O-])c(=O)[nH]1 came out at -19.6

Just so you know, measured growth inhibition for COc1ccc2nc3cc(Cl)ccc3c(SCC(=O)Nc3ccccc3-c3ccccc3NC(=O)CSc3c4ccc(Cl)cc4nc4ccc(OC)cc34)c2c1 came out at 22.9

Just so you know, measured growth inhibition for O=c1c2ccccc2c(=O)c2c1c1c(=O)c3ccccc3c(=O)c1c1c(=O)c3ccccc3c(=O)c21 came out at 29.6

Just so you know, measured growth inhibition for COc1cc2c(c(OC)c1OC)-c1ccc(OC)c(=O)cc1[C@@H](NC=O)CC2 came out at 4.15

Just so you know, measured growth inhibition for c1cnc2c(c1)Oc1nc3ccccc3nc1S2 came out at 35.9

Just so you know, measured growth inhibition for Cc1cccc2ccc(-c3cc4ccccc4s3)nc12 came out at -87.6

Just so you know, measured growth inhibition for CCCCCCCCCCCCCCCCCCCCCCCCC(=O)O came out at 4.15

Just so you know, measured growth inhibition for CN1CC2=C(NC(=S)NC2c2ccc(Cl)cc2)/C(=C/c2ccc(Cl)cc2)C1 (centres undefined) came out at 14.4

Just so you know, measured growth inhibition for Nc1ccc2c(C(F)(F)F)cc(=O)oc2c1 came out at -29.6

Just so you know, measured growth inhibition for O=C(OC(c1ccccc1)C(c1ccccc1)N1CCOCC1)c1ccc([N+](=O)[O-])cc1 (centres undefined) came out at -4.9

Just so you know, measured growth inhibition for CCOC(Nc1cc(Cl)cc(Cl)c1)C(=O)c1ccccc1 (centres undefined) came out at -3.05

Just so you know, measured growth inhibition for CC(=O)[CH-]C(=O)c1ccccc1.CC(=O)[CH-]C(=O)c1ccccc1.CC[C@H](/C=C/C(C)[C@H]1CCC2[C@@H]3CC=C4C[C@@H]([O-])CC[C@]4(C)C3CC[C@@]21C)C(C)C.CC[C@H](/C=C/C(C)[C@H]1CCC2[C@@H]3CC=C4C[C@@H]([O-])CC[C@]4(C)C3CC[C@@]21C)C(C)C.Cl.[Ti+4] (some centres undefined) came out at -12.1

Just so you know, measured growth inhibition for N#CC1C(c2ccc(Cl)cc2)C(C(N)=O)C(=O)NC1(O)c1ccccc1 (centres undefined) came out at 8.95

Just so you know, measured growth inhibition for CSC(SC)c1cc(C)no1 came out at 34.6

* * *

Assay: NCI Yeast Anticancer Drug Screen. Data for the sgs1 mgt1 strain (AID 161);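 also: 0% = growth of cultures given vehicle only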
Conditions: S. cerevisiae sgs1 mgt1 strain, stronger effect = higher value; at 50.0 µM unless noted
The panel holds about 79,000 compounds, 15% with a hit somewhere; the sample as a whole holds those more often.
MEASUREMENT_KIND: growth inhibition (%)
Respond with the bare value in %.

Just so you know, measured growth inhibition for COC1CCC2C3CCC(C3)C12 (stereo not drawn) came out at 6.4

Just so you know, measured growth inhibition for CCOc1c(N=Nc2ccc(Cl)cc2Cl)c(C)nn1C(=S)SC came out at 25.9

Just so you know, measured growth inhibition for O=C(O)CNC(=S)SCC(=O)O came out at -23.1

Just so you know, measured growth inhibition for C=CC[N+]1(CCOC(=O)C(c2ccccc2)C2C=CCC2)CCCC1 (stereo not drawn) came out at -6.9

Just so you know, measured growth inhibition for O=C(CCCC1CCCCC1)OC1CCCCC1 came out at 8.7

Just so you know, measured growth inhibition for O=C(NCc1ccco1)Nc1ccccc1C(F)(F)F came out at 18.5

Just so you know, measured growth inhibition for CNC(=O)Nc1c(C)cccc1C came out at -0.2

Just so you know, measured growth inhibition for O=C1CSC(c2ccccc2Cl)N1c1n[nH]c(=S)s1 (stereo not drawn) came out at -9.5

Just so you know, measured growth inhibition for CC1CCC2COC(=O)CCC2(C)C1C (stereo not drawn) came out at -9.75

Just so you know, measured growth inhibition for CN(/N=C/c1cccs1)c1ccc(Cl)cc1[N+](=O)[O-] came out at -13.8

Just so you know, measured growth inhibition for Nc1cc2c(cc1[N+](=O)[O-])-c1ccc(Cl)cc1C2=O came out at 1.45

Just so you know, measured growth inhibition for Cc1ccc(S(=O)(=O)Nc2ccc([N+](=O)[O-])cc2-c2ccccc2)cc1 came out at 0.2

Just so you know, measured growth inhibition for N#CSC(C(=O)c1ccccc1)c1ccccc1 (stereo not drawn) came out at 91.2

* * *

Test: NCI Yeast Anticancer Drug Screen. Data for the mec2-1 strain (AID 157)
Details: S. cerevisiae mec2-1 strain, stronger effect = higher value; at 50.0 µM unless noted
The panel holds about 79,000 compounds, 15% with a hit somewhere; the sample as a whole holds those more often. Where a SMILES comes first, the peptide text is derived from it.
What growth inhibition was measured for each of the following?
Respond with the bare value in %.

Just so you know, measured growth inhibition for COc1ccc(NC(=O)/C(=N\NC(=O)C[n+]2ccccc2)c2c(O)c3ccc(O)cc3oc2=O)c([N+](=O)[O-])c1 came out at 47.2

Just so you know, measured growth inhibition for O=C(O)c1cccc(C(=O)O)c1-c1c(C(=O)O)cccc1C(=O)O came out at 17.8

Just so you know, measured growth inhibition for COc1cc2c(cc1OC)[C@H](c1cc(OC)c3c(c1)OCO3)[C@H]1C(=O)OCC1C2 (stereo partly specified) came out at -0.1

Just so you know, measured growth inhibition for CCOC(=O)c1ccc(NC(=S)Nc2ncccc2C)cc1 came out at 11.4

Just so you know, measured growth inhibition for C=CCCC(=O)CC(=O)OCc1ccccc1 came out at -31

Just so you know, measured growth inhibition for CC1C(C)(C)C23CC12C1(OCCO1)C3Br (stereo unspecified) came out at -4.4

Just so you know, measured growth inhibition for O=[N+]([O-])c1ccc2c(c1)S(=O)c1ccccc1-2 (stereo unspecified) came out at -3.65

Just so you know, measured growth inhibition for CC(O[Si](C)(C)C)C1C=CC(C)n2c(=O)n(-c3ccccc3)c(=O)n21 (stereo unspecified) came out at -26.6

Just so you know, measured growth inhibition for NC(=O)C1CCCN1C(=O)C(N)Cc1ccccc1 (stereo not drawn) (H-Phe-Pro-NH2; configuration not given here) came out at -44.1

Just so you know, measured growth inhibition for CN1C(=O)N(c2cc(Cl)cc(Cl)c2)C(=N)C1=S came out at 1.75

Just so you know, measured growth inhibition for CC(=O)Oc1c(I)cc(Cc2nc(C)oc2C)cc1I came out at -1.15

* * *

Assay: NCI Yeast Anticancer Drug Screen. Data for the rad50 strain (AID 155);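 also: 0% = growth of vehicle-only cultures of the same strain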
Conditions: S. cerevisiae rad50 strain growth inhibition, stronger effect = higher value; at 50.0 µM unless noted
Compounds without any hit were thinned out: in the full panel of roughly 79,000, 15% have a hit.
MEASUREMENT_KIND: growth inhibition (%)
Respond with the bare value in %.

Just so you know, measured growth inhibition for O=C(CCCN1CCC2(CC1)C(=NC1CCCCC1)NC(=O)N2c1ccccc1)c1ccc(F)cc1 came out at -10.8

Just so you know, measured growth inhibition for C[N+](C)(C)CC1CCC/C1=N\OC(=O)c1ccccc1 (configuration not stated) came out at -17.8

Just so you know, measured growth inhibition for CC(C)(O)CCNc1ncnc2c1ncn2C1OC(CO)C(O)C1O (configuration not stated) came out at 2

Just so you know, measured growth inhibition for CC(=O)c1cccc(OC(=O)Nc2ccccc2)c1 came out at 6.45

Just so you know, measured growth inhibition for COc1ccc2[nH]c3ccccc3c(=O)c2c1 came out at 12.6

Just so you know, measured growth inhibition for O=C(O)/C=C/C(=O)NCCCCCCNC(=O)/C=C/C(=O)O came out at 4.55

Just so you know, measured growth inhibition for O=C(/C(Cl)=N/O)c1ccc(O)c(O)c1 came out at 30.3

Just so you know, measured growth inhibition for COc1ccc2c3c(ccc2c1)[C@@H]1C/C(=C(\OC(C)=O)C(F)(F)F)C(=O)[C@@]1(C)CC3 came out at -0.85

Just so you know, measured growth inhibition for CCOC(=O)C(=O)/C(=C/N1C(=O)CC(=O)NC1=S)C(=O)OCC came out at -19.6

Just so you know, measured growth inhibition for O=C1/C(=N\[O-])C(S(=O)(=O)[O-])=Cc2cc(S(=O)(=O)[O-])cc(O)c21.O=C1/C(=N\[O-])C(S(=O)(=O)[O-])=Cc2cc(S(=O)(=O)[O-])cc(O)c21.[Cu+2] came out at -1.8

Just so you know, measured growth inhibition for C=C=C(C)[Si](C)(C)C came out at -14.8

Just so you know, measured growth inhibition for CCCCC(Sc1nn(C2OC(COC(=O)c3ccccc3)C(OC(=O)c3ccccc3)C2OC(=O)c2ccccc2)c(=O)[nH]c1=O)C(=O)OCC (configuration not stated) came out at -1.45

Just so you know, measured growth inhibition for Cc1[nH]c2c(ccc3c2ccc2c(=O)c(C)c(C)[nH]c23)c(=O)c1C came out at -2.05

Just so you know, measured growth inhibition for CCn1c2ccccc2c2ccccc21 came out at 27.2

Just so you know, measured growth inhibition for CN(C(=O)Cc1ccccc1)n1cn[n+](CC(=O)OC(C)(C)C)c1 came out at -3.65

Just so you know, measured growth inhibition for COC(=O)C1=Nc2c(C)nn(-c3ccccc3)c2N=C(c2ccc([N+](=O)[O-])cc2)C1 came out at -18.4

Just so you know, measured growth inhibition for O=C(CSC(=S)N1CCOCC1)Nc1nc2c(s1)CCCC2 came out at -15.1

Just so you know, measured growth inhibition for N#CCCC(C#N)(CCC#N)C(N)=O came out at 11.9

Just so you know, measured growth inhibition for O=C1CCCc2[nH]ccc21 came out at -14.7

Just so you know, measured growth inhibition for CCOc1nc(=O)n(C2OC(CO)C(O)C2O)s1 (configuration not stated) came out at 26.4

Just so you know, measured growth inhibition for CN1C(=O)CCC1c1nc2ccccc2[nH]1 (configuration not stated) came out at 0.15

Just so you know, measured growth inhibition for O=C1N=CN=C2C=CC(Cl)=C(I)C12 (configuration not stated) came out at 0.85

Just so you know, measured growth inhibition for ClCCCCCNC1CCCCC1 came out at -1.2

Just so you know, measured growth inhibition for O=C(NCCO)c1c(O)c2ccccc2[nH]c1=O came out at 2.8

Just so you know, measured growth inhibition for CN(C)S(=O)(=O)c1ccccc1C(O)(c1ccccc1)c1ccccc1 (tested in a mixture with another compound) came out at 35.1

Just so you know, measured growth inhibition for N#CNC(N)=NCCO came out at -22.2

Just so you know, measured growth inhibition for CN(CCNC(=O)C1CCCCC1C(=O)O)c1ccccc1 (configuration not stated) came out at 5

Just so you know, measured growth inhibition for Cc1cccc2oc3c(c(=O)c12)CC(O)C(C)(C)O3 (configuration not stated) came out at 15.6

Just so you know, measured growth inhibition for COc1ccccc1N=C(N)N/N=C/c1c[nH]c2ccccc12 came out at 0.25

Just so you know, measured growth inhibition for O=c1[nH]n(Cc2ccccc2CCl)c2ccc([N+](=O)[O-])cc12 came out at 24.1

Just so you know, measured growth inhibition for Nc1ncnc2c1ncn2C1OC(CSCC(F)(F)F)C(O)C1O (configuration not stated) came out at -4.05

Just so you know, measured growth inhibition for Cc1cccc2ccc(-c3cc4ccccc4s3)nc12 came out at -5.95

Just so you know, measured growth inhibition for COCC(C)OC(=O)COc1ccccc1 (configuration not stated) came out at 1.05

Just so you know, measured growth inhibition for COc1ccc2oc(=N)c(C(=O)Nc3ccccc3)cc2c1 came out at 24.2

Just so you know, measured growth inhibition for CN(C)CCN1CC2Cc3ccccc3C1c1ccccc12 (configuration not stated) came out at 24.1

Just so you know, measured growth inhibition for COc1cc2c[n+](C)c3c4cc(OC)c(OC)cc4c(OCc4ccccc4)cc3c2cc1OC came out at 86

Just so you know, measured growth inhibition for O=C(Oc1cccc(O)c1)c1ccccc1 came out at -7.25

Just so you know, measured growth inhibition for CCN(CC)/N=C/c1cc([N+](=O)[O-])ccc1O came out at 24.9

Just so you know, measured growth inhibition for O=C1c2ccccc2C(=O)N1CCS(=O)(=O)O came out at 8.65

Just so you know, measured growth inhibition for CC(=O)Nc1ccc(S(=O)(=O)O)c(OC(C)=O)c1 came out at 20.8

Just so you know, measured growth inhibition for COc1cccc2c(SC)c(C)[nH]c12 came out at 14.9

Just so you know, measured growth inhibition for CO[C@@H]1C2=CC=CC=C[C@H]2n2c(=O)n(-c3ccccc3)c(=O)n21 came out at -10.2

Just so you know, measured growth inhibition for CCCCCCCCC1OC1CCCCCCCCOCC(O)CO (configuration not stated) came out at 18.9

Just so you know, measured growth inhibition for CCOC(=O)c1cc([N+](=O)[O-])cnc1C came out at 5.8

Just so you know, measured growth inhibition for CCCCCC[P+](c1ccccc1)(c1ccccc1)c1ccccc1 came out at 97.7

Just so you know, measured growth inhibition for NCC1COC(c2ccccc2)(c2ccccc2)O1 (configuration not stated) came out at -2.25

Just so you know, measured growth inhibition for N#Cc1cc2c(N)ncnc2nc1N1CCCC1 came out at -43.7
